Hi there, I'd appreciate the recorded normalized growth for every entry that follows.
Assay: chemical genetic growth profiling, strain panel (AID 1159580);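 also: tested at 20 µM; growth read once vehicle control cultures reached saturation at 30 °C; 1 = growth at the plate median or of vehicle wells; lower values mean less growth of the strain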
Details: S. cerevisiae deletion strains, growth OD, locus YLR058C, strain SHM2, active compounds read low
Hit rate of the full screen: of about 5,500 compounds, about 2,000 (36%) were called active. Inconclusive results (about 18%) are left out. This is one part of the list.
// no unit, no text: just the number

For C=C(C)c1cc2cc(C(C)=O)c(O)cc2o1 the compound record lists normalized growth as 0.948

Given item Cc1cc(O)c2c(c1O)C(=O)c1c(O)cc(C)c(O)c1C2=O , the value recorded as its normalized growth is 0.93

normalized growth in this record for Cn1nnnc1SCC1=C(C(=O)O)N2C(=O)C(NC(=O)C(OC=O)c3ccccc3)C2SC1 (stereo not given) : 1

Reported normalized growth of O=C1c2ccc(O)c(O)c2C(=O)c2c(O)ccc(O)c21 : 1.01

Reported normalized growth ( CCCC(=O)Nc1ncnc2c1ncn2C1O[C@@H]2COP(=O)(O)O[C@H]2[C@H]1OC(=O)CCC (stereo not given in full) ) = 1.01
